# TGT: eIF4E/eIF4G interaction (Homo sapiens, UniProt P06730)
# Sequence (P06730 whole entry): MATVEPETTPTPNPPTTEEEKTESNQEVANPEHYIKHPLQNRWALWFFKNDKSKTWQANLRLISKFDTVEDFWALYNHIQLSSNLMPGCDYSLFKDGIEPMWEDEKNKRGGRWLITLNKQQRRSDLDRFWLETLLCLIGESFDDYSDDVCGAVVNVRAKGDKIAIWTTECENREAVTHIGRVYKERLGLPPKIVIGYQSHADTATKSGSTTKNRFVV
# METHOD_SUMMARY: Fluorescent polarization assay
# Format: binding
# TEST_PARAMETERS: FITC eIF4G peptide and recombinant eIF4E, ratio to Z (4EGI-1 = 1)
QUANTITY_NAME: Fp (ratio to Z)

For the compound COc1ccc(-c2csc(NN=C(Cc3ccccc3[N+](=O)[O-])C(=O)O)n2)cc1 , what Fp (ratio to Z) is on record?
0.86

P = COc1ccc(-c2nc(N/N=C(\Cc3ccccc3[N+](=O)[O-])C(=O)O)sc2-c2ccc(-c3ccccc3)cc2)cc1 [KY-435-S]
Q = O=C(O)/C(=N/Nc1nc(-c2ccc(Cl)c(Cl)c2)cs1)c1cccc([N+](=O)[O-])c1
Which record shows the lower Fp (ratio to Z): the first, P , or the second, Q ? // output: label of the selected item
Q
